Where these numbers come from: paper PMC10598672

# system: JAK3 (Homo sapiens)
# Sequence (P52333 1-1124): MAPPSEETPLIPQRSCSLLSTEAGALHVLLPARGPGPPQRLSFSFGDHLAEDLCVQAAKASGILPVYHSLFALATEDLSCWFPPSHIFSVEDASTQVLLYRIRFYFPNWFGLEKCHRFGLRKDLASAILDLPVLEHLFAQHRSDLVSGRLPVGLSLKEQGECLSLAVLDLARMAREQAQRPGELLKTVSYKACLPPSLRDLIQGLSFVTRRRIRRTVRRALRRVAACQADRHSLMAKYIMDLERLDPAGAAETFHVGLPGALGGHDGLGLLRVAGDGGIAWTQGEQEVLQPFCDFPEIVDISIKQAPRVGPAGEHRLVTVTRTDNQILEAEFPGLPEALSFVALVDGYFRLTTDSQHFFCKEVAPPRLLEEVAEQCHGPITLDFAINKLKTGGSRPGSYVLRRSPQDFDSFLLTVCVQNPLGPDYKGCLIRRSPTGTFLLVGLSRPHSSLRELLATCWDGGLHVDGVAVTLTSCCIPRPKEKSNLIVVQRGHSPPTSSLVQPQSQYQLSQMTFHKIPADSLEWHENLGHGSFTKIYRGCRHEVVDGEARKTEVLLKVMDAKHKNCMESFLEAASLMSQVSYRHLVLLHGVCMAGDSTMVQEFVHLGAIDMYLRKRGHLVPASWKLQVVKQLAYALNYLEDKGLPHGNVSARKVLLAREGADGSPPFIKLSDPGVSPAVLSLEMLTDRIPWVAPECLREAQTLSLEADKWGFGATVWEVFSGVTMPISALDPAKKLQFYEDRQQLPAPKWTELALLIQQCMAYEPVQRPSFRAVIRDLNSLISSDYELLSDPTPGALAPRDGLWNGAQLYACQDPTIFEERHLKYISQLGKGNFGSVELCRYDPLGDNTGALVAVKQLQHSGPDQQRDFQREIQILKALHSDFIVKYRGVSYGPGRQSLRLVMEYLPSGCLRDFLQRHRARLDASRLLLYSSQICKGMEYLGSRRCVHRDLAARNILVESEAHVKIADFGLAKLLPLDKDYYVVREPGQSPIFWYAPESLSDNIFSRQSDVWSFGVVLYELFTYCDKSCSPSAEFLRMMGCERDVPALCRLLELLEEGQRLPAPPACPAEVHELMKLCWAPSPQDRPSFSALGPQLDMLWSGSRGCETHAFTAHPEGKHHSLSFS
assay.metric: IC50 (µM)
Write it as a number; the unit µM goes unstated.

stdin: Using the record for CC(=O)Nc1cc(Oc2ccc3c(C(=O)Nc4ccc(CN5CCN(C)CC5)c(C(F)(F)F)c4)cccc3c2)ncn1 , report its IC50.
stdout: 4.11
